# System: NOMO1
# Protocol details: cell viability relative to DMSO control; higher = less cytotoxic
# Protocol conditions: HPLM + 10% dialyzed FBS; 48 h; 15.4 µM
Readout: cell viability (%)
API: value field is a number in %; no unit string.

Please review the following examples before continuing.
For CCN(CC)CCOC1=CC=C(NC2=NC=C3\C=C(/C(=O)N(C)C3=N2)C4=C(Cl)C=CC=C4Cl)C=C1 the molecule record lists cell viability as 10.1

For COc1ccc(-c2c(-c3ccc(O)cc3O)n[nH]c2C)cc1 the molecule record lists cell viability as 102

For C[C@@H]1CN(CC(=O)N2CC(C)(C)c3ncc(Cc4ccc(F)cc4)cc32)[C@@H](CN2CCOC[C@H]2C)CN1 the molecule record lists cell viability as 84

For CC1OC(OC/2=C(/OC3=C(C(=CC(=C3)O)O)C2=O)C4=CC=C(O)C=C4)C(O)C(OC(C)=O)C1OC(C)=O (stereo unspecified) the molecule record lists cell viability as 101

For CC1=C2N=C([NH]C2=CC(=C1)N3CCOCC3)\C4=C(NC[C@@H](O)C5=CC=CC(=C5)Cl)\C=C/NC4=O the molecule record lists cell viability as 44.2

***
For O=C(c1ccc(F)cc1)C1CCN(CCn2c(=O)[nH]c3ccccc3c2=O)CC1 the molecule record lists cell viability as 111

For CCC1=C(C)CN(C(=O)NCCc2ccc(S(=O)(=O)NC(=O)N[C@H]3CC[C@H](C)CC3)cc2)C1=O the molecule record lists cell viability as 83.3

For COc1cc2ncnc(Nc3ccc(F)c(Cl)c3)c2cc1OCCCN1CCOCC1 the molecule record lists cell viability as 64

For CNC(=O)c1c(F)cccc1Nc1nc(Nc2cc3c(cc2OC)CCN3C(=O)CN(C)C)nc2[nH]ccc12 the molecule record lists cell viability as 62

For O=C1c2cccc(O)c2C(=O)c2c(O)cc(CO)cc21 the molecule record lists cell viability as 75.8

For O=C1[O][Pt]2([NH]C3CCCCC3[NH]2)[O]C1=O (stereo unspecified) the molecule record lists cell viability as 14.7

---

Item-by-item account of cell viability
# System: SEM cells
# Protocol details: cell viability relative to DMSO control; higher = less cytotoxic
# Protocol conditions: HPLM + 10% dialyzed FBS; 48 h; 0.569 µM
Hey, just the number and the unit after it is fine.

Please review the following examples before continuing.
Observed cell viability on SEM cells, entry CCCCOc1ccc(C(=O)Nc2ccc(F)cc2F)cc1 , equals 84.6%

Observed cell viability on SEM cells, entry NC/1=N/C(=O)N(/C=C1)[C@H]2CC[C@@H](CO)O2 , equals 109%

Observed cell viability on SEM cells, entry CO[C@@H]1[C@H](N(C)C(=O)c2ccccc2)C[C@H]2O[C@]1(C)n1c3ccccc3c3c4c(c5c6ccccc6n2c5c31)C(=O)NC4 , equals 55.5%

***
Observed cell viability on SEM cells, entry COc1ccc2cccc(CCNC(C)=O)c2c1 , equals 112%

Observed cell viability on SEM cells, entry CNC(=O)c1cc(Oc2ccc(NC(=O)Nc3cc(C(C)(C)C)nn3-c3ccc4ncccc4c3)c(F)c2)ccn1 , equals 80.5%

---

# System: P12-Ichikawa
# Protocol details: cell viability relative to DMSO control; higher = less cytotoxic
# Protocol conditions: RPMI 5 mM glucose + 10% dialyzed FBS; 48 h; 15.4 µM
Readout: cell viability (%)
API: value field is a number in %; no unit string.

Please review the following examples before continuing.
Observed cell viability on P12-Ichikawa, entry CCOC(=O)c1ncn2c1CN(C)C(=O)c1cc(F)ccc1-2 , equals 74.4

Observed cell viability on P12-Ichikawa, entry COC(=O)N[C@H](C(=O)N[C@@H](Cc1ccccc1)[C@@H](O)CN(Cc1ccc(-c2ccccn2)cc1)NC(=O)[C@@H](NC(=O)OC)C(C)(C)C)C(C)(C)C , equals 98.2

Observed cell viability on P12-Ichikawa, entry COc1cc(N2CCC(N3CCN(C)CC3)CC2)ccc1Nc1ncnc(Nc2ccccc2[S+](=O)([O-])C(C)C)n1 , equals 83.4

Observed cell viability on P12-Ichikawa, entry C[C@@H]1CN(CC(=O)N2CC(C)(C)c3ncc(Cc4ccc(F)cc4)cc32)[C@@H](CN2CCOC[C@H]2C)CN1 , equals 118

Observed cell viability on P12-Ichikawa, entry Cc1c(OCC(F)(F)F)ccnc1C[S+]([O-])c1nc2ccccc2[nH]1 (stereo not given) , equals 111

Observed cell viability on P12-Ichikawa, entry CC(C)[C@H](CO)Nc1nc(Nc2ccc(C(=O)O)c(Cl)c2)c2ncn(C(C)C)c2n1 , equals 102

***
Observed cell viability on P12-Ichikawa, entry CCC(=O)O[C@@]1([C@H](C)C[C@H]2[C@@H]3C[C@H](F)\C4=C\C(=O)\C=C/[C@]4(C)[C@@]3(F)[C@@H](O)C[C@]12C)C(=O)SCF , equals 48.6

Observed cell viability on P12-Ichikawa, entry COc1ccc(-c2nc3cc(C4=NNC(=O)CC4C)ccc3[nH]2)cc1 (stereo not given) , equals 110

Observed cell viability on P12-Ichikawa, entry COc1ccc2cccc(CCNC(C)=O)c2c1 , equals 98.2

Observed cell viability on P12-Ichikawa, entry CCC(CC)[C@H](NC(C)=O)[C@@H]1[C@H](O)[C@@H](C(=O)O)C[C@H]1NC(=N)N , equals 82.6

Observed cell viability on P12-Ichikawa, entry CCN(CC)CCOC1=CC=C(NC2=NC=C3\C=C(/C(=O)N(C)C3=N2)C4=C(Cl)C=CC=C4Cl)C=C1 , equals 4.8

Observed cell viability on P12-Ichikawa, entry NC\1=N\C(=O)N(\C=N1)[C@H]2C[C@H](O)[C@@H](CO)O2 , equals 30.3

Observed cell viability on P12-Ichikawa, entry CCCCc1oc2ccc(NS(C)(=O)=O)cc2c1C(=O)c1ccc(OCCCN(CCCC)CCCC)cc1 , equals 20.9
